// UniProtKB Q9Y5N1 Ki records
Sequence (Q9Y5N1 whole entry): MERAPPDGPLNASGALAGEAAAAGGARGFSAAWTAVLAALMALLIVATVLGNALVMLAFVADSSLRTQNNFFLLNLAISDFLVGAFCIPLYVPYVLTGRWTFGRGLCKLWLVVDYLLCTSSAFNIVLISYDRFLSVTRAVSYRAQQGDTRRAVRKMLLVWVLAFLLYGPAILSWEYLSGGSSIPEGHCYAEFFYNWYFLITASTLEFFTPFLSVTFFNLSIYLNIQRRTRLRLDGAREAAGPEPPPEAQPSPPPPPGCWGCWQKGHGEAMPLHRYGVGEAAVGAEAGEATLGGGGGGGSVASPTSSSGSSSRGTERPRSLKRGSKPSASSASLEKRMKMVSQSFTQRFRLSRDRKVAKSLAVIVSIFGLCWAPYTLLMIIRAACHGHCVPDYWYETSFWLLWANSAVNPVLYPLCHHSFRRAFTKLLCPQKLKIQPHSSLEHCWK
PARAMETER MEASURED: Ki (nM)

1. CNC1CN(c2nc(N)nc3cc(C#N)cnc23)C1: 9550
2. CCc1ccc2c(N3CC[C@@H](NC)C3)nc(N)nc2c1: 603
3. CN[C@@H]1CCN(c2cc(NCC3CC3)nc(N)n2)C1: 186
4. Nc1nc(N2CCNCC2)c2ccc(C3CC3)cc2n1: 155
5. CCc1cnc2c(N3CC[C@@H](NC)C3)nc(N)nc2c1: 1510
6. CNC1CN(c2nc(N)nc3cc(C4CCCC4)ccc23)C1: 158

* * *

Target: Histamine H4 receptor (Homo sapiens, UniProt Q9H3N8)
Sequence (Q9H3N8 whole entry): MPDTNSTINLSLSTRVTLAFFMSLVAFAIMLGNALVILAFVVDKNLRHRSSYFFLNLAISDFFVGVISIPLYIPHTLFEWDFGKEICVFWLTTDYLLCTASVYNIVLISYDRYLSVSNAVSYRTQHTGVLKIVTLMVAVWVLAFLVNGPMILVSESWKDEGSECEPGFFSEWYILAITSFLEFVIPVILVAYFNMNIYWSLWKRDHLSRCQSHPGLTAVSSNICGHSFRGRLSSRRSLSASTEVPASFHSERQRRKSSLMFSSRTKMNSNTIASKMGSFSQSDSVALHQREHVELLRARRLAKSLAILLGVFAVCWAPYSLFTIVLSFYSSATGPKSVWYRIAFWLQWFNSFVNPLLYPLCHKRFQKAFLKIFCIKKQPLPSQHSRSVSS
Assay: Antagonist activity at human histamine H4 receptor expressed in HEK cells assessed as inhibition of histamine-induced [35S]GTPgammaS binding
Format: functional, cell-based
Details: HEK293
Parameter: pKb. Scope: all listed entries.
PARAMETER MEASURED: pKb

1) CN[C@@H]1CCN(c2cc(NCC3CC3)nc(N)n2)C1: 8.46
2) CCc1cnc2c(N3CC[C@@H](NC)C3)nc(N)nc2c1: 8.08
3) CNC1CN(c2nc(N)nc3cc(C4CC4)cnc23)C1: 8.33
4) CNC1CN(c2nc(N)nc3cc(C4CCCC4)cnc23)C1: 8.2
5) CCc1cnc2c(N3CC(NC)C3)nc(N)nc2c1: 8.14
